# tested target: GABA-A receptor; anion channel
# test details: Binding affinity for GABA-A central benzodiazepine receptor
pKi: −log10 of the molar value.
quantity kind: pKi

Endpoint output: pKi of CCN(C)C1CCCc2ccncc21.O=C(O)/C=C\C(=O)O.O=C(O)/C=C\C(=O)O (stereo unspecified) . Value?
< 5.00

====

# tested target: 5-hydroxytryptamine receptor 7 (Homo sapiens)
# Sequence (P34969 whole entry): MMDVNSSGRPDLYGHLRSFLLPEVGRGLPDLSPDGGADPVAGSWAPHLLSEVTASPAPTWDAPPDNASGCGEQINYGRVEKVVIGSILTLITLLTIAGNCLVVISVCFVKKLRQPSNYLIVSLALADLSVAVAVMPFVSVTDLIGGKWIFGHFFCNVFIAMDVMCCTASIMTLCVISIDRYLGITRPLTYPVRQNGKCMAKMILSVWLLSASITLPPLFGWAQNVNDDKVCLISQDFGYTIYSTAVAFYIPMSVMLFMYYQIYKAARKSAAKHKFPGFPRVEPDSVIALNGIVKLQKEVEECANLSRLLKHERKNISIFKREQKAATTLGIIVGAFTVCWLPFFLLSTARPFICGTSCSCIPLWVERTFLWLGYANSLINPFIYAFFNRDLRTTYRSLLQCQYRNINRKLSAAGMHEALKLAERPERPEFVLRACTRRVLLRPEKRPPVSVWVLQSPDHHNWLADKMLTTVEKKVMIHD
quantity kind: Ki

Endpoint output: Ki of CCN(C)C1CCCc2ccncc21.O=C(O)/C=C\C(=O)O.O=C(O)/C=C\C(=O)O (stereo unspecified) . Value?
> 10 µM

====

# tested target: Neuronal acetylcholine receptor; alpha4/beta2 (Homo sapiens, UniProt P17787+P43681)
# Sequence (P17787 whole entry): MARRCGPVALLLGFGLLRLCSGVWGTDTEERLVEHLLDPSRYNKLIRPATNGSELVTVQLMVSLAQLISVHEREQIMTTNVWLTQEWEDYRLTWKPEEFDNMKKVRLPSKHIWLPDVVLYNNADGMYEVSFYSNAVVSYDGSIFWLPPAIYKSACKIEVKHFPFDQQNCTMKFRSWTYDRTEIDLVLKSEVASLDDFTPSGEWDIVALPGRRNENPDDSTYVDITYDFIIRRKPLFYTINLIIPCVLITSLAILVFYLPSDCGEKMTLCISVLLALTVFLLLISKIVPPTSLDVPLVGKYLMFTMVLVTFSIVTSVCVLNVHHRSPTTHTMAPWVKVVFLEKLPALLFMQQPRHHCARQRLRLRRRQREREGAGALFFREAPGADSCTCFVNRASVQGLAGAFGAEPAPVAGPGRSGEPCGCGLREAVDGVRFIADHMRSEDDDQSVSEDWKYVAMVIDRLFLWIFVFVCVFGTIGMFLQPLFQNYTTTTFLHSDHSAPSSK
# Sequence (P43681 whole entry): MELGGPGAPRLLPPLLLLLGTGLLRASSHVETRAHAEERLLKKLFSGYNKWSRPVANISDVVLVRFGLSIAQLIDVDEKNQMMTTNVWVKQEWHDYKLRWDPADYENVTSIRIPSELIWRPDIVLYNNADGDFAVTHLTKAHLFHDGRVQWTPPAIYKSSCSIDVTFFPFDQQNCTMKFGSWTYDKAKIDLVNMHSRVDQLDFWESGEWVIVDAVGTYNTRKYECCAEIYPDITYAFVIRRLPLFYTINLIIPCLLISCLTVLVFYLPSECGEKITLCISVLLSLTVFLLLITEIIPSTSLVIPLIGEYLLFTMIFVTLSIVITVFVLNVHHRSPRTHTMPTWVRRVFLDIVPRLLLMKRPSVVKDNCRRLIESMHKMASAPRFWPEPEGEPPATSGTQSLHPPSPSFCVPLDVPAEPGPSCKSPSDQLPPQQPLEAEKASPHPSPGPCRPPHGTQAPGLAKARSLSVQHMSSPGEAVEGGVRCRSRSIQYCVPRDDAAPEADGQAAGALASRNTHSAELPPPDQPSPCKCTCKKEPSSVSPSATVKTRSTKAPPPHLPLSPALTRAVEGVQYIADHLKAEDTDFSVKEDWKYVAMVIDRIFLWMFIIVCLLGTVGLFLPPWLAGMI
# test details: Affinity for nicotinic acetylcholine receptor alpha4-beta2
# Assay type: protein-complex assay
quantity kind: Ki

compound | tested target | Ki
CCCNC1CCCc2ccncc21 (configuration not stated) | Neuronal acetylcholine receptor; alpha4/beta2 (Homo sapiens, UniProt P17787+P43681) | > 10 µM
NC1CCCc2ccncc21 (configuration not stated) | Neuronal acetylcholine receptor; alpha4/beta2 (Homo sapiens, UniProt P17787+P43681) | > 10 µM
CNC1CCCc2ccncc21 (configuration not stated) | Neuronal acetylcholine receptor; alpha4/beta2 (Homo sapiens, UniProt P17787+P43681) | > 10 µM
CCN(C)C1CCCc2ccncc21.O=C(O)/C=C\C(=O)O.O=C(O)/C=C\C(=O)O (configuration not stated) | Neuronal acetylcholine receptor; alpha4/beta2 (Homo sapiens, UniProt P17787+P43681) | 0.93 µM
CCCN(C)C1CCCc2ccncc21 (configuration not stated) | Neuronal acetylcholine receptor; alpha4/beta2 (Homo sapiens, UniProt P17787+P43681) | > 10 µM

Endpoint output: Ki of CN(C)C1CCCc2ccncc21 (configuration not stated) . Value?
0.33 µM

Try the compound c1cc2c(cn1)C(N1CCCC1)CCC2 (configuration not stated)
> 10 µM
